measuredOn: NUAK1 (Homo sapiens (Human), UniProt O60285)
Sequence (O60285 whole entry, species assumed): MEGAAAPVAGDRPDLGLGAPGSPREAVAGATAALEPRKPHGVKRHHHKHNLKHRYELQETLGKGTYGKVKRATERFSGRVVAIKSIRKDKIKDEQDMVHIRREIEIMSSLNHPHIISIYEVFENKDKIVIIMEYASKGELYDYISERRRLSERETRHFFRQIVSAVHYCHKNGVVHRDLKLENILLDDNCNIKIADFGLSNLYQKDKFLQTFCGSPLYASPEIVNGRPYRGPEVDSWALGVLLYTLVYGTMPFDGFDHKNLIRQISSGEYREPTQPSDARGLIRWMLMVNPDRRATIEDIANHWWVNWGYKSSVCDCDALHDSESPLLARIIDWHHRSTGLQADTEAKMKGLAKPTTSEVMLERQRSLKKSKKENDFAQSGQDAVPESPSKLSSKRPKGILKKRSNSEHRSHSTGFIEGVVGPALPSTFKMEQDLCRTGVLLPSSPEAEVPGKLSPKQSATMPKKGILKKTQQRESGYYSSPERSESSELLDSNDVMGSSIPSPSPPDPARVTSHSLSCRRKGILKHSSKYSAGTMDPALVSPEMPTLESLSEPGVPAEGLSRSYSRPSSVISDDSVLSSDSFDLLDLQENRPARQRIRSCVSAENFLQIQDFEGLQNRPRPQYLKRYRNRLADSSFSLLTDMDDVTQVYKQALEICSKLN
testDetails: NUAK1 kinase selectivity assay
Type: biochemical
conditionLabel: 1 μM inhibitor concentration
Item-by-item account of percentage inhibition of NUAK1
propertyName: percentage inhibition of NUAK1 (percentage)

INSERT INTO measurements (chemicalstructure, quantitativeresult) VALUES
  ('c1cc2[nH]nc3c2c(n1)N(C1CCOCC1)CCC3', 7),
  ('c1cc2[nH]nc3c2c(n1)N(C1CCCC1)CCC3', 17),
  ('CN1CCC(N2Cc3ccccc3-c3n[nH]c4ccnc2c34)CC1', 76),
  ('c1cc2[nH]nc3c2c(n1)N(C1CCC1)CCC3', 8),
  ('CC(C)n1ncc2c1CN(C1CCN(C)CC1)c1nccc3[nH]nc-2c13', 65);
